target: T1, human LILRB1 recombinant protein (human, UniProt Q8NHL6 24-461); experiment: ELISA, B cell supernatant
T1 construct: The ELISA method says only 'LILRB1 recombinant proteins' coated on plates; also called leukocyte immunoglobulin-like receptor subfamily B member 1
T1 sequence (Q8NHL6 24-461 limits assumed): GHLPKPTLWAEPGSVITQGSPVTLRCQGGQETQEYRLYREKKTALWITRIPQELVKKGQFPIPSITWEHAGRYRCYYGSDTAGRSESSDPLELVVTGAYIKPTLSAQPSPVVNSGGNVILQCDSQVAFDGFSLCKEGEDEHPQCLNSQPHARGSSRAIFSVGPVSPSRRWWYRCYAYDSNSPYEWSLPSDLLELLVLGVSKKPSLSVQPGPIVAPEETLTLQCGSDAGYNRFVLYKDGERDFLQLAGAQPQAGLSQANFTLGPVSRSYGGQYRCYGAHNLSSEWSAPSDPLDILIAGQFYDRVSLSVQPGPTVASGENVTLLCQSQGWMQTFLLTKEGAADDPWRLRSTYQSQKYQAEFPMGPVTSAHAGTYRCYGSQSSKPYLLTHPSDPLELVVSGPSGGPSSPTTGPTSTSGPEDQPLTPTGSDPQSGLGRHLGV
Experimental Endpoint: OD450 (OD450)
Give just the numeric value; OD450 need not be written.

Q. Need OD450, item mAb of B cell clone 15 (supernatant) (antibody, V domains shown, rabbit; also called B1-#15) VH: EQSVEESGGDLVKPGASLTLTCTASGFSSSSSAYMCWVRQAPGKGLEWIACIFIGSGSDSYYATWAKGRFTISKTSSTTVTLQMTSLTAADTATYFCARNTYDWNGYIYGPCYFGLWGPGTLVTISS VL: ELDLTQTPSSVEAAVGGTVTIKCQASQSIYNYLAWYQQKPGHSPKLLIYDVSKLASGVSSRFKGSGSGTEFTLTISDLECADAATYYCQSYYGNTVSFTFGGGTEVEIK
A. 2.5

Q. Now consider mAb of B cell clone 110 (supernatant) (antibody, V domains shown, rabbit; also called B1-#110) VH: QSLEESGGDLVKPEGSLTLTCTASGFSFSSSYWICWVRQAPGKGLEWIGCIYAGNSANTYYASWAKGRFTISKTSSTTVTLQLTSLTAADTATYFCASRNGGAPDGLNLWGPGTLVTISS VL: ELDLTQTPASVEAAVGGTVTIKCQASLNINSWLAWYQQKPGQPPKLLISYTSSLASGVPSRFKGSGSGTEYTLTINDLECADAATYYCQTTYFGTNGGGFGGGTEVEIK and answer again.
A. 2.31

Q. Thanks! And mAb of B cell clone 128 (supernatant) (antibody, V domains shown, rabbit) VH: RAVGKESGGDLVTLGGSLKLSCKASGIDLSNFYYMCWVRQAPGKGLEWIGCVASDSSRTHYATWPKGRFTISKTSSTTVTLQMTSLTAADTATYFCARGSGASTNGVWWVMGDGMDLWGPGTLVTVSS VL: ELDMTQTPSSVSAAVGGTVTIKCQASQSISSYLSWYQQKPGQPPKRLIYKASTLPSGVPPRFKGSGSGTEFTLTISDLECADAATYYCQNNYHSGSSNGGGFAFGGGTQVEIK ?
A. 2.51
